// inhibition at 5 min, 10 μM lookup, one value per entry
target: CaV1.2 (L-type voltage-dependent calcium channel; CACNA1C, CACNB2, CACNA2D1) (Homo sapiens, UniProt Q13936); construct: expressed in transfected cells; host or cells: CHO; test: CaV1.2 channel whole-cell patch clamp (Ion Channel Activity Measurement); assay type: cell-based; details: human, pH 7.4, 10 μM test article, room temperature, read-out: CaV 1.2 10 μM (ion-channel inhibition)
Sequence (Q13936 1-2138 isoform Q13936-12): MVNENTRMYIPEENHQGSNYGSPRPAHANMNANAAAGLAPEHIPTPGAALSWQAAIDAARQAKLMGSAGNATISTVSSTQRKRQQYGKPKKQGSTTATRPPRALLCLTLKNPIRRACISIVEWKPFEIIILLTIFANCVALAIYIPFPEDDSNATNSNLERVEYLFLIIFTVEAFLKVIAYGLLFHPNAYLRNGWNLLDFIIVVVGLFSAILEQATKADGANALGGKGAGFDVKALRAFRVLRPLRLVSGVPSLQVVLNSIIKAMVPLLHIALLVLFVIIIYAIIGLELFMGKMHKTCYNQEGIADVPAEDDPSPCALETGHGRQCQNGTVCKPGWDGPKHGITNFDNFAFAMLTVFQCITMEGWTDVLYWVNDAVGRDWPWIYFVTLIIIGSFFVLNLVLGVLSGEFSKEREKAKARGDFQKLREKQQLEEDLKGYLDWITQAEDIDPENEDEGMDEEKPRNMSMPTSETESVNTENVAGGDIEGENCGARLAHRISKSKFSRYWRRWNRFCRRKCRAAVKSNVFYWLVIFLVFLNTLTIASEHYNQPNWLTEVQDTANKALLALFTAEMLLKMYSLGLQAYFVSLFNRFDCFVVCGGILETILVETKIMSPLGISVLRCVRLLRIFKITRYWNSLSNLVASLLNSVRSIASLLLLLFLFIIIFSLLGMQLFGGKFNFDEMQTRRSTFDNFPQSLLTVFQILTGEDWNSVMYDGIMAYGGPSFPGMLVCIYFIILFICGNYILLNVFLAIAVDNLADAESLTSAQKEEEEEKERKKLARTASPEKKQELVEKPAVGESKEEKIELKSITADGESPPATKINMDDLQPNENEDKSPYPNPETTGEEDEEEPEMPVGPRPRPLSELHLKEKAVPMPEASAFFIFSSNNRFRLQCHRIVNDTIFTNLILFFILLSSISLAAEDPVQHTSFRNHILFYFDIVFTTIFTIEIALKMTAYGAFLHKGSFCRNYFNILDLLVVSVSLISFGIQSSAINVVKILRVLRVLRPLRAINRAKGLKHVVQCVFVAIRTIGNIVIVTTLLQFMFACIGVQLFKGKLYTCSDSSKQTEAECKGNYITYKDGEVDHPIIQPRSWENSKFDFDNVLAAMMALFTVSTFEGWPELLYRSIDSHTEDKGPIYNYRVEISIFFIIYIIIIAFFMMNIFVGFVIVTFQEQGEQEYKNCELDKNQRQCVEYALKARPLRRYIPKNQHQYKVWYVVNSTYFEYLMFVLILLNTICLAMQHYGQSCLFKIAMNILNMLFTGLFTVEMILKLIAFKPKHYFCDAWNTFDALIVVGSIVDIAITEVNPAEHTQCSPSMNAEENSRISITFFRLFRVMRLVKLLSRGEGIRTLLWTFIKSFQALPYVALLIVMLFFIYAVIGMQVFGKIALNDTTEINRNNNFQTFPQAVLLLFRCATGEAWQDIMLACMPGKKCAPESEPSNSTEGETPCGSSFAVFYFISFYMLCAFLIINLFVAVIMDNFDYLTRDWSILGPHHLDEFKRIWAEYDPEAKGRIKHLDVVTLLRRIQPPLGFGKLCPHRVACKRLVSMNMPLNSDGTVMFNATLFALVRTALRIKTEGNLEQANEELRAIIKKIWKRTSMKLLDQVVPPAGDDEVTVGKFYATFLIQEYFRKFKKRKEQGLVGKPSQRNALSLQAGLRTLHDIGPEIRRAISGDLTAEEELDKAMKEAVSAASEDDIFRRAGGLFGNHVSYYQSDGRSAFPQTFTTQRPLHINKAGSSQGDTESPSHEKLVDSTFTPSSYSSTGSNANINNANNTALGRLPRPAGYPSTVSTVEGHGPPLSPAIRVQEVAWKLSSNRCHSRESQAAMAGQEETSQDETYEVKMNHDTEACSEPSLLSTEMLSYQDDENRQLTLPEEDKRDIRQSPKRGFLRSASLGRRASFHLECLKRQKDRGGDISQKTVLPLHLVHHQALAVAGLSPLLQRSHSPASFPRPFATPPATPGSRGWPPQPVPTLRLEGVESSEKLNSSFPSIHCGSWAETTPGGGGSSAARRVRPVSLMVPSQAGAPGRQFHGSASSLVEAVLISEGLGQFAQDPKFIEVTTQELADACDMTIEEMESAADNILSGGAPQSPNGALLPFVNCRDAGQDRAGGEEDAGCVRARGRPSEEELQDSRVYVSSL
Sequence (Q08289 1-605 isoform Q08289-2 partner): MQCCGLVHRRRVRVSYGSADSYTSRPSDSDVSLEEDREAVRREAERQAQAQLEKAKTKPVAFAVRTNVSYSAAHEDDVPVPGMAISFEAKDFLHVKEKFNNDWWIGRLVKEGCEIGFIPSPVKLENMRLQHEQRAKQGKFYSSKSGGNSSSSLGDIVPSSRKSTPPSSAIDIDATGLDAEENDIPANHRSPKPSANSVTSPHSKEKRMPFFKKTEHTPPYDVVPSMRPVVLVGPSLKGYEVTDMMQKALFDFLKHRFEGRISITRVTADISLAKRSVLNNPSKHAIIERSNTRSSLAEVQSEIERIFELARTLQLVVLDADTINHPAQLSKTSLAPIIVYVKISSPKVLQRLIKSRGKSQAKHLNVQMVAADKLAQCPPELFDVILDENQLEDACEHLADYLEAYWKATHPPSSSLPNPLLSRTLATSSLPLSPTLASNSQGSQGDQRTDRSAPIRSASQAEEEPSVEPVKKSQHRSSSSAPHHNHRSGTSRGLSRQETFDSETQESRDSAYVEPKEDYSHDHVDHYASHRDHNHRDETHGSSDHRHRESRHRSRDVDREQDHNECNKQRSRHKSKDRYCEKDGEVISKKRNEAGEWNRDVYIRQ
Sequence (P54289 25-1091 isoform P54289-2 partner limits assumed): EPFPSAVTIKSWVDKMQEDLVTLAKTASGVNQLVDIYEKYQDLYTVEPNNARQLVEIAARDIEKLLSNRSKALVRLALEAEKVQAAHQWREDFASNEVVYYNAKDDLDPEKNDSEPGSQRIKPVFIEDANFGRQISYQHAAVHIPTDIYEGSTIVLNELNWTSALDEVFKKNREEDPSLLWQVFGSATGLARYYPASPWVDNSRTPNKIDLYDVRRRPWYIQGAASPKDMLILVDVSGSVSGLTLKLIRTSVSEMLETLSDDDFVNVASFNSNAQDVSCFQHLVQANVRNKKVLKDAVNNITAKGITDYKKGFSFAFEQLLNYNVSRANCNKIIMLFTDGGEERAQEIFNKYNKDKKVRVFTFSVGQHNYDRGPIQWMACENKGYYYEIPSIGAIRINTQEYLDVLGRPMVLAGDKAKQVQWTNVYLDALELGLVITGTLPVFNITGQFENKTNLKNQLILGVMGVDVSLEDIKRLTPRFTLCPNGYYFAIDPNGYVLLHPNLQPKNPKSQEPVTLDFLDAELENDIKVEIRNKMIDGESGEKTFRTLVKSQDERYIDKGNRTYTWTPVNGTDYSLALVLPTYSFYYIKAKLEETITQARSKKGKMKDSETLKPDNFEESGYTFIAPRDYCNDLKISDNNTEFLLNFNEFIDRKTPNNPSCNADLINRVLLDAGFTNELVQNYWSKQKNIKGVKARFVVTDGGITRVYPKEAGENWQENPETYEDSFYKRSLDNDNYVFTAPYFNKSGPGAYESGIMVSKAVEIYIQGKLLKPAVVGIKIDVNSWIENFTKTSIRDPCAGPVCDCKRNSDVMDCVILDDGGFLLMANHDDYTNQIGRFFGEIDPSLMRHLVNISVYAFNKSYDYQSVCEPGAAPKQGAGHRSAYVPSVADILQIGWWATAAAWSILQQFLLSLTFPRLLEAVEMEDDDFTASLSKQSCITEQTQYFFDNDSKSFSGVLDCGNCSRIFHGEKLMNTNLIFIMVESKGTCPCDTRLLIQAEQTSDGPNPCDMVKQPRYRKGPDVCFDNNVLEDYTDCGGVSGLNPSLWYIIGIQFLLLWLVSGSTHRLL
Sequence (P54289 957-1103 partner limits assumed): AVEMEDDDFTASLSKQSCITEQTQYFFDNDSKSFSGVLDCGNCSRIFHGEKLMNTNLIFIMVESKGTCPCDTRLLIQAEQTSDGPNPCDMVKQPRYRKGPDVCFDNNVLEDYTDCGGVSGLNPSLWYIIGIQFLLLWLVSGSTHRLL

Consider the reported inhibition at 5 min, 10 μM for these compounds:
- COMPOUND: "Oc1ccc2c(c1Cc1c(O)ccc3c1CNCC3)CCCC2"
  inhibition at 5 min, 10 μM: "< 25%"
- COMPOUND: "COCCOc1ccc2ccccc2c1Cc1c(OCCN2CCCC2)ccc2ccccc12"
  inhibition at 5 min, 10 μM: "75 to 100%"
- COMPOUND: "COc1ccc2ccccc2c1Cc1c(COCCN2CCCC2)ccc2ccccc12"
  inhibition at 5 min, 10 μM: "75 to 100%"
- COMPOUND: "Oc1cccc2c1C(c1c(O)ccc3ccccc13)=CC2"
  inhibition at 5 min, 10 μM: "< 25%"
- COMPOUND: "CCN(CC)CCOc1ccc2ccccc2c1Sc1c(O)ccc2ccccc12"
  inhibition at 5 min, 10 μM: "75 to 100%"
- COMPOUND: "Oc1c(F)cc2ccccc2c1Cc1c(O)c(F)cc2ccccc12"
  inhibition at 5 min, 10 μM: "50 to 75%"

inhibition at 5 min, 10 μM reading for Oc1ccc2c(c1Cc1c(O)ccc3ccccc13)CNCC2 : < 25%

inhibition at 5 min, 10 μM reading for COc1cccc(-c2ccncc2)c1Cc1c(O)cccc1-c1ccncc1 : < 25%

inhibition at 5 min, 10 μM reading for CCN(CC)CC(=O)Oc1ccc2ccccc2c1Cc1c(OC)ccc2ccccc12 : 75 to 100%

---

biological target: CaV1.2 (L-type voltage-dependent calcium channel; CACNA1C, CACNB2, CACNA2D1) (Homo sapiens); construct: expressed in transfected cells; host or cells: CHO; experiment: CaV1.2 channel whole-cell patch clamp (Ion Channel Activity Measurement); type: cell-based; settings: human, pH 7.4, 10 μM test article, room temperature, read-out: CaV 1.2 10 μM (ion-channel inhibition)
MEASURED_PARAMETER: inhibition at 5 min, 10 μM

Consider the reported inhibition at 5 min, 10 μM for these compounds:
- STRUCTURE_SMILES: "CC(c1c(O)ccc2ccccc12)c1c(O)ccc2ccccc12"
  DATA_VALUE: "75 to 100%"
- STRUCTURE_SMILES: "NC(=O)c1ccc2c(Cc3c(O)ccc4ccccc34)c(O)ccc2c1"
  DATA_VALUE: "75 to 100%"
- STRUCTURE_SMILES: "Oc1ccc2ccccc2c1Cc1c(O)ccc2ccccc12"
  DATA_VALUE: "75 to 100%"

inhibition at 5 min, 10 μM reading for CCOCOc1ccc2ccccc2c1Cc1c(OCC2CCNCC2)ccc2ccccc12 : 75 to 100%

inhibition at 5 min, 10 μM reading for Nc1cc(Cc2c(N)ccc3ccccc23)c2ccccc2c1 : 25 to 50%

inhibition at 5 min, 10 μM reading for NC(=O)c1ccc2c(Cc3c(O)ccc4cc(C(N)=O)ccc34)c(O)ccc2c1 : < 25%

inhibition at 5 min, 10 μM reading for CCOCOc1cccc2c1C(=O)CCC2 : 25 to 50%

inhibition at 5 min, 10 μM reading for CS(=O)(=O)Nc1ccc2ccccc2c1Cc1c(O)ccc2ccccc12 : 25 to 50%

inhibition at 5 min, 10 μM reading for O=C(O)c1ccc2c(Cc3c(O)ccc4ccccc34)c(O)ccc2c1 : < 25%
